- measuredOn: Renin (Homo sapiens, UniProt P00797)
- Sequence (P00797 whole entry): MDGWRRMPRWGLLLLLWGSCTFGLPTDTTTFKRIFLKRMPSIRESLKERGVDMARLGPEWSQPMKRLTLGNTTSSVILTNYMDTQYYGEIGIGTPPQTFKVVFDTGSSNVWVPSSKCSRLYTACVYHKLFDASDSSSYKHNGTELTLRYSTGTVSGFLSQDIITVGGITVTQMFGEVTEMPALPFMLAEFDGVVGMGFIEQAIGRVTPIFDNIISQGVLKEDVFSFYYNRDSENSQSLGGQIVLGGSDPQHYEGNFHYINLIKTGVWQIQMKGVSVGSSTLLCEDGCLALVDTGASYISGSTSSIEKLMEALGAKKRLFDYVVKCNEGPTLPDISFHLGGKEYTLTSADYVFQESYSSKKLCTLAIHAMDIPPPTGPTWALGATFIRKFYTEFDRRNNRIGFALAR
- testDescription: Inhibition against purified human renin
measuredQuantity: IC50 (µM)

CC(C)S(=O)(=O)CC[C@H](O)[C@H](CC1CCCCC1)NC(=O)[C@H](Cc1c[nH]cn1)NC(=O)[C@H](Cc1ccccc1)NC(=O)OC(C)(C)C: 0.0076
CC(C)C[C@H](NC(=O)[C@H](C)NC(=O)[C@H](Cc1ccccc1)NC(=O)OC(C)(C)C)[C@@H](O)CCS(=O)(=O)C(C)C: 1.6
CC(C)CCSCC[C@H](O)[C@H](CC(C)C)NC(=O)[C@H](C)NC(=O)[C@H](Cc1ccccc1)NC(=O)OC(C)(C)C: 5.5
CC(C)C[C@H](NC(=O)[C@H](C)NC(=O)[C@H](Cc1ccccc1)NC(=O)OC(C)(C)C)[C@@H](O)CCSCCc1ccccc1: 4.2

P: CC(C)CCS(=O)(=O)CC[C@H](O)[C@H](CC(C)C)NC(=O)[C@H](C)NC(=O)[C@H](Cc1ccccc1)NC(=O)OC(C)(C)C
Q: CC(C)C[C@H](NC(=O)[C@H](C)NC(=O)[C@H](Cc1ccccc1)NC(=O)OC(C)(C)C)[C@@H](O)CCSC(C)C
Prompt line: // which entry reports the smaller IC50, P or Q ? Respond with the label that goes with your answer.
Response line: P

###

- measuredOn: Cathepsin D (Bos taurus, UniProt P80209)
- Sequence (P80209 whole entry): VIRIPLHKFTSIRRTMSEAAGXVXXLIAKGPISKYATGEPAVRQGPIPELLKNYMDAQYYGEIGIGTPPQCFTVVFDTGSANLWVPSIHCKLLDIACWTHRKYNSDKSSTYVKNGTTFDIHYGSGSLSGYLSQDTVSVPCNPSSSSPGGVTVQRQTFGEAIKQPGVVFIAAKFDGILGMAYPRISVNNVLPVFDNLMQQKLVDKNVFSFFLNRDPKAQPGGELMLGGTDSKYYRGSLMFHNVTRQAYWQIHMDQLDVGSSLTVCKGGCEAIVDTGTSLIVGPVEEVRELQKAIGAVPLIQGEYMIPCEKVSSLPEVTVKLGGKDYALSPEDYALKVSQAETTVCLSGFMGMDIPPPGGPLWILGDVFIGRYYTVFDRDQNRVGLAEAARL
pIC50: −log10 of the molar value.
Reported pIC50 values follow for various compounds

Record excerpt, results attached:
CC(C)S(=O)(=O)CC[C@H](O)[C@H](CC1CCCCC1)NC(=O)[C@H](Cc1c[nH]cn1)NC(=O)[C@H](Cc1ccccc1)NC(=O)CC(C)(C)C: < 5.00
CC(C)S(=O)(=O)CC[C@H](O)[C@H](CC1CCCCC1)NC(=O)[C@H](C)NC(=O)[C@H](Cc1ccccc1)NC(=O)OC(C)(C)C: < 5.00
COc1ccc(C[C@H](NC(=O)OC(C)(C)C)C(=O)N[C@@H](Cc2c[nH]cn2)C(=O)N[C@@H](CC2CCCCC2)[C@@H](O)CCS(=O)(=O)C(C)C)cc1: < 5.00
CCS(=O)(=O)CC[C@H](O)[C@H](CC1CCCCC1)NC(=O)[C@H](C)NC(=O)[C@H](Cc1ccccc1)NC(=O)OC(C)(C)C: < 5.00

Please find the next compound below.
Reported pIC50 of CC(C)S(=O)(=O)CC[C@H](O)[C@H](CC1CCCCC1)NC(=O)[C@H](Cc1c[nH]cn1)NC(=O)[C@H](Cc1ccccc1)NC(=O)OC(C)(C)C : 5.00
